tgt: T1, ROR1 naturally expressed on human tumor cell lines (A549, Jeko-1, SW620, PA-1) (human, UniProt Q01973 30-937)
T1 construct: whole, on cells; also called cells expressing ROR1
protocol: FACS on Jeko-1 cells naturally expressing ROR1
Please provide measured pEC50 for the entries that follow.
Entry type: numeric. Quantity: pEC50, the -log10 of concentration in molar units.

-- ask Quote pEC50 reported for hz137G11D10-3.2 (antibody, human IgG1, kappa, V domains shown, Humanized, human IgG1/kappa) VH: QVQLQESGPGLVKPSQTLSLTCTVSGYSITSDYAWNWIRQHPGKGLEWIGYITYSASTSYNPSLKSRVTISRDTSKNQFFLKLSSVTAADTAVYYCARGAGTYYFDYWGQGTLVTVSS VL: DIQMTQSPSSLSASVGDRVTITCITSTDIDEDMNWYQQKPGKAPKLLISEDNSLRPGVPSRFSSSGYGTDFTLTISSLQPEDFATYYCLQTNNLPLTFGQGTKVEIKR please.
-- reply 10.92

-- ask // fetch pEC50 given entry hz137G11D10-2.2 (antibody, human IgG1, kappa, V domains shown, Humanized, human IgG1/kappa) VH: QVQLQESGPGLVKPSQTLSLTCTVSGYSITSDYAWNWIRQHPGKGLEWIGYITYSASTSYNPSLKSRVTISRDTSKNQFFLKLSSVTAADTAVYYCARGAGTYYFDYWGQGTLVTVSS VL: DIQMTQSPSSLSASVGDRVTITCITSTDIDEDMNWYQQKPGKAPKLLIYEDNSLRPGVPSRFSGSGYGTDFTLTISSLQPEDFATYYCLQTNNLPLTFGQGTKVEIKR
-- reply 10.92

-- ask Using known records, supply pEC50 for hz137G11D10-1.1 (antibody, human IgG1, kappa, V domains shown, Humanized, human IgG1/kappa) VH: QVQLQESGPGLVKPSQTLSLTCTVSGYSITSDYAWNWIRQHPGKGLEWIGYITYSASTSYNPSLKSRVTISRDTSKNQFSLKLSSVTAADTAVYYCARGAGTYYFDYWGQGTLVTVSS VL: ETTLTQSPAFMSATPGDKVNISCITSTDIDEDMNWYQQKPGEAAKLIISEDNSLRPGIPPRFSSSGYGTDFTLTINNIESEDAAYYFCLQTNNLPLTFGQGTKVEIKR
-- reply 10.82

-- ask Specify pEC50 for hz137G11D10-1.2 (antibody, human IgG1, kappa, V domains shown, Humanized, human IgG1/kappa) VH: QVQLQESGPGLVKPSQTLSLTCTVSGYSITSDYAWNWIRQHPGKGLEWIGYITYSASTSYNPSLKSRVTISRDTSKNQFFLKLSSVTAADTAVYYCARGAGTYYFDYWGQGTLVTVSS VL: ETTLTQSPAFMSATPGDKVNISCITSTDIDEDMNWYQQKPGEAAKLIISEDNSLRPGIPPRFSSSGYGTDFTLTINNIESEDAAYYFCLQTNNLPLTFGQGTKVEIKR and stop.
-- reply 10.80

Cited source: patent EP4772535A1
